# Tested on: BT-549
# assay-comment: NCI tumour cell line growth inhibition, 48 h
The source made the active and inactive calls. Cut-off read from the data, not from the text of the source: active = GI50 up to about 1.1 µM and inactive = higher.
measurement-type: GI50

structure-smiles | result
CCCc1cn2c(/C=N/NC(=N)N)c(-c3cccc([N+](=O)[O-])c3)nc2s1 | 1.57 µM (inactive)
Cc1ccc2[nH]c3[nH]c(=O)[nH]c(=O)c3c2c1 | > 100 µM (inactive)
CCCCOc1ccc(S(=O)(=O)N/C(N)=N/c2ccc(Cl)cc2)cc1 | 17.8 µM (inactive)

----------
# Test system: SNB-75
# assay-comment: NCI tumour cell line growth inhibition, 48 h
The source made the active and inactive calls. Cut-off read from the data, not from the text of the source: active = GI50 up to about 1.1 µM and inactive = higher.
Classes used: active, inactive

compound | class-label
N=C1C(O)C2(I)c3ccccc3N3C(=N)C(O)C4c5ccccc5N1C4C32 (stereo not given) | inactive
CCc1nc(Cl)c(Cl)c(Cl)n1 | active
COC1/C=C\C=C(/C)C(=O)NC2=CC(=O)C(NCCCl)=C(CC(C)CC(OC)C(O)C(C)/C=C(/C)C1OC(N)=O)C2=O (stereo not given) | active
CC(=O)NC1CCC(NC(=O)OC(C)(C)C)C(NC(=O)OC(C)(C)C)C1 (stereo not given) | inactive
CCOC1=NC(C(F)(F)F)(C(F)(F)F)N=C(N2CCCCC2)O1 | inactive
CC(C(=O)c1ccccc1)C(c1ccccc1)N1CCOCC1 (stereo not given) | inactive
CSc1c(C(=O)Nc2ccc(C)cc2)c(N)n(N)c(=O)c1C#N | inactive
[N-]=[N+]=Nc1c(C=O)c(=O)n(-c2ccccc2)c2ccccc12 | inactive
CCOP1(=O)CC(C)=C(Cl)C(O)C1 (stereo not given) | inactive
CCCc1cn2c(/C=N/NC(=N)N)c(-c3cccc([N+](=O)[O-])c3)nc2s1 | inactive

----------
# Tested on: M14
# assay-comment: NCI tumour cell line growth inhibition, 48 h
The source made the active and inactive calls. No stated cut-off is given here; in the data, active = GI50 up to about 1.1 µM and inactive = higher.
Classes used: active, inactive

compound | system-under-test | class-label
CCCC(=O)Nc1cc(/C=C/C(=O)N2CC(CCl)c3c2cc(OC(C)=O)c2[nH]cc(C)c32)n(C)c1 (stereo not given) | M14 | active
COC(=O)c1ccc(NCc2cc(O)ccc2O)cc1 | M14 | inactive
N#CCc1ccc(/C(C#N)=C2/OC(=N)C(c3ccc(CC#N)cc3)C2=O)cc1 (stereo not given) | M14 | inactive
CC1(C)C2CCC1(C)C(OC(=O)/C=C/C(=O)OC1CC3CCC1(C)C3(C)C)C2 (stereo not given) | M14 | inactive
O=C(O)CNC(=O)CO/N=C1/C(=C2/C(=O)Nc3ccccc32)Nc2ccccc21 | M14 | inactive

----------
Listed compounds paired with reported GI50
# System: EKVX
# assay-comment: NCI tumour cell line growth inhibition, 48 h
Calls of active or inactive are those of the source. Cut-off read from the data, not from the text of the source: active = GI50 up to about 1.1 µM and inactive = higher.

structure-smiles | system-under-test | GI50
COC(=O)Cc1c([C@H]2[C@H](CC(=O)OC)c3ccccc3N2C(C)=O)[nH]c2ccccc12 | EKVX | > 100 µM (inactive)
COc1ccc(C#Cn2nnc3ccccc32)cc1 | EKVX | 32.8 µM (inactive)
CCOC(=O)Nc1nc2cc(Cn3cccc3)ccc2[nH]1 | EKVX | 27.7 µM (inactive)
O=C1CCCC(=O)N1n1c(Cc2ccc(Cl)cc2)n[nH]c1=O | EKVX | > 100 µM (inactive)

----------
# Tested on: A498
# assay-comment: NCI tumour cell line growth inhibition, 48 h
Activity calls are given as the source filed them. No stated cut-off is given here; in the data, active = GI50 up to about 1.1 µM and inactive = higher.
Listed compounds paired with reported GI50

compound | system-under-test | GI50
COc1cccc(NC(=O)C(=O)C(C(C)=O)c2nc3ccc(Cl)cc3nc2O)c1 (stereo not drawn) | A498 | > 100 µM (inactive)
COC(=O)C1=C(c2ccc3c(c2)OCO3)O[C@H](c2ccc3c(c2)OCO3)[C@H]1COC(C)=O | A498 | 24.6 µM (inactive)
COc1c(C)c2c(c(C)c1Cl)Oc1c(C=O)c(O)c(Cl)c(C)c1C(=O)O2 | A498 | 24.2 µM (inactive)
CN1C(=O)C2C(=O)N(Cc3ccccc3)CC(=O)N2c2cccnc21 (stereo not drawn) | A498 | > 100 µM (inactive)
C=CCN(c1cc(OCc2ccccc2)c2[nH]cc(C)c2c1)S(C)(=O)=O | A498 | 29.2 µM (inactive)
COc1cc(S(=O)(=O)Nc2nc(-c3ccc(/N=C/c4cccs4)cc3)cs2)ccc1Cl | A498 | > 100 µM (inactive)
O=C(Cc1ccccc1)NN1C(=O)C(Cl)C1c1ccccc1Cl (stereo not drawn) | A498 | > 100 µM (inactive)
COc1cccc(-c2nnc3c(-c4ccccc4)nc4ccccc4n23)c1 | A498 | 6.58 µM (inactive)
COC(=O)Cc1c([C@H]2[C@H](CC(=O)OC)c3ccccc3N2C(C)=O)[nH]c2ccccc12 | A498 | > 100 µM (inactive)
COc1ccc2c(c1O)-c1cc(O)cc3c1[C@@H](C2)N(C)CC3 | A498 | 49.9 µM (inactive)
N=c1c2c(-c3ccccc3)c[nH]c2ncn1N | A498 | > 100 µM (inactive)
O=C1C=C(Nc2ccc(Br)cc2)c2ccccc2C1=O | A498 | 17.2 µM (inactive)
C=C[C@]1(C)CC(=O)C(C(C)C=O)[C@]12C(=O)Oc1cccc(C)c1C2=O (stereo partly drawn) | A498 | 25.9 µM (inactive)

----------
# Test system: CCRF-CEM
# assay-comment: NCI tumour cell line growth inhibition, 48 h
Activity calls are given as the source filed them. Rule as the data show it: active = GI50 up to about 1.1 µM and inactive = higher.
Classes used: true (active), false (inactive)

molecule | class-label
CSc1c(C(=O)Nc2ccc(C)cc2)c(N)n(N)c(=O)c1C#N | false
COc1cccc(NC(=O)C(=O)C(C(C)=O)c2nc3ccc(Cl)cc3nc2O)c1 (stereo not given) | false
Cc1nn(C(=O)c2ccc(Cl)cc2)c2c1C(c1ccccc1)SC(=N)N2 (stereo not given) | false
c1ccc(/C(=N\Nc2nc3ccccc3s2)c2ccccn2)cc1 | true
O=C(c1ccc(Cl)c(Cl)c1)N(C(=O)N1CCN(c2ccccc2)CC1)S(=O)(=O)c1ccccc1 | false

----------
Listed molecules paired with reported GI50
# Test system: Hs-578T
# assay-comment: NCI tumour cell line growth inhibition, 48 h
The source made the active and inactive calls. No stated cut-off is given here; in the data, active = GI50 up to about 1.1 µM and inactive = higher.

molecule | system-under-test | GI50
O=C1CCC2(CC1CC[S+]([O-])c1ccccc1)OCCO2 (stereo not drawn) | Hs-578T | > 100 µM (inactive)
CCOC1=NC(C(F)(F)F)(C(F)(F)F)N=C(N2CCCCC2)O1 | Hs-578T | > 100 µM (inactive)
C/C(=N\Nc1nc2ccccc2o1)c1cc(C)ncn1 | Hs-578T | 0.231 µM (active)
O=C(/C=C1\C[C@H]2C=Nc3ccccc3C(=O)N2C1)NCCCCNC(=O)/C=C1\C[C@H]2C=Nc3ccccc3C(=O)N2C1 | Hs-578T | 29.4 µM (inactive)
O=c1c2cc(I)ccc2nc(Sc2ncccc2[N+](=O)[O-])n1Cc1ccccc1 | Hs-578T | 16.7 µM (inactive)
O=C(Cn1c2c(c3ccccc31)CCCC2)NC1CCCCC1 | Hs-578T | 55 µM (inactive)
COc1ccccc1NS(=O)(=O)c1ccc2ncn(NS(=O)(=O)c3ccc(Cl)cc3)c(=O)c2c1 | Hs-578T | 77.3 µM (inactive)
CCCC(=O)OC1C(C(O)CO)OC2OC(C)(C)OC21 (stereo not drawn) | Hs-578T | > 100 µM (inactive)

----------
# Tested on: SF-295
# assay-comment: NCI tumour cell line growth inhibition, 48 h
Calls of active or inactive are those of the source. Cut-off read from the data, not from the text of the source: active = GI50 up to about 1.1 µM and inactive = higher.
Classes used: true = active, false = inactive

compound | class-label
CNC(=O)N1N[C@H](c2ccccc2)[C@@H]1c1ccccc1.OB(O)O | false
O=C(c1ccccc1)N1CCC(CC2(c3cc4ccccc4[nH]3)OCCO2)CC1 | false
CC(=O)NC1CCC(NC(=O)OC(C)(C)C)C(NC(=O)OC(C)(C)C)C1 (stereo unspecified) | false
CC1=C(O)C(O)=C(C2=C(O)C(O)=C(C)C(=O)C2=O)C(=O)C1=O | false
N=C1C(O)C2(I)c3ccccc3N3C(=N)C(O)C4c5ccccc5N1C4C32 (stereo unspecified) | false
C/C(=N\Nc1nc2ccccc2o1)c1cc(C)ncn1 | true
O=C(Nc1cccc2nsnc12)c1cc2c(cc1Cl)Sc1nccn1S2(=O)=O | false
O=C(CC(CC(=O)Oc1c(Br)cc(Br)cc1C(=O)O)C(=O)Oc1c(Br)cc(Br)cc1C(=O)O)Oc1c(Br)cc(Br)cc1C(=O)O | false
O=C(O)/C(=C/c1ccccc1[N+](=O)[O-])c1ccccc1 | false
O=C(O)[C@@H](NS(=O)(=O)c1ccc([N+](=O)[O-])cc1)c1ccccc1 | false
COc1cccc(NC(=O)C(=O)C(C(C)=O)c2nc3ccc(Cl)cc3nc2O)c1 (stereo unspecified) | false
COC(=O)c1ccc(NCc2cc(O)ccc2O)cc1 | false
CC(=O)Nc1cc2c(s1)CCC1CC(=O)NN=C21 (stereo unspecified) | false
CCCC(=O)OC1C(C(O)CO)OC2OC(C)(C)OC21 (stereo unspecified) | false
Cc1cc([N+](=O)[O-])c(C)c2c1[nH]c1ccc(/C(CCC3CCCC3)=N\N)cc12 | false
SCc1ccc(CS)s1 | false
COC(=O)C(C(=O)C(=O)Nc1ccc(C)cc1)c1nc2ccc([N+](=O)[O-])cc2nc1O (stereo unspecified) | false
Nc1cccc2c1C1=NNC(=O)CC1C2 (stereo unspecified) | false
NC1=NS(=O)(=O)Nc2[nH]c(-c3ccccc3)nc21 | false
C=C(CN(C)C)C(=O)c1ccc(Oc2ccccc2)cc1 | false
CSc1nc(NC2OC(CO)C(O)C(O)C2O)c(N)c(=O)[nH]1 (stereo unspecified) | false
